Data provenance: patent US9498467B2

Notes on IC50 obtained with human JAK1 (a.a. 837-1142) (Homo sapiens, UniProt P23458).
Sequence (P23458 849-1154): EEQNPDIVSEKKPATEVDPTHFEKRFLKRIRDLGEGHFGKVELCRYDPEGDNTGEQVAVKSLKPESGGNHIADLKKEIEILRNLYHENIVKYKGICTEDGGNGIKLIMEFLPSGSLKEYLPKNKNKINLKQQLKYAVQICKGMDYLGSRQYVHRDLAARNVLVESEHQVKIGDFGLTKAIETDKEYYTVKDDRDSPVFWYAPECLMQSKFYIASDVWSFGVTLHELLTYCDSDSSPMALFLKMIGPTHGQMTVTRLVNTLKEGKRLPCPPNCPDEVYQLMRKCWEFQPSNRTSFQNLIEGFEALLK

[[record]]
compound_string = "C[C@H](NC(=O)c1cc(F)c(N2CC(CC#N)(n3cc(-c4ncnc5[nH]ccc45)cn3)C2)cc1F)C(F)(F)F"
measured_quantity = "IC50"
value = "< 0.01 µM"

[[record]]
compound_string = "C[C@H](O)CNCc1cc(OC2CCN([C@H]3C[C@](CC#N)(n4cc(-c5ncnc6[nH]ccc56)cn4)C3)CC2)nc(C(F)(F)F)c1"
measured_quantity = "IC50"
value = "< 0.01 µM"


Continue with the compound presented below.
IC50 on human JAK1 (a.a. 837-1142) (Homo sapiens, UniProt P23458) for N#CCC1(n2cc(-c3ncnc4[nH]ccc34)cn2)CN([C@H]2CC[C@@H](Oc3cc(CCO)nc(C(F)(F)F)n3)CC2)C1 is < 0.01 µM
